# assay system: RPS6KA2 KD1 KD2 (human) (UniProt Q15349)
# Sequence (Q15349 whole entry, looked up): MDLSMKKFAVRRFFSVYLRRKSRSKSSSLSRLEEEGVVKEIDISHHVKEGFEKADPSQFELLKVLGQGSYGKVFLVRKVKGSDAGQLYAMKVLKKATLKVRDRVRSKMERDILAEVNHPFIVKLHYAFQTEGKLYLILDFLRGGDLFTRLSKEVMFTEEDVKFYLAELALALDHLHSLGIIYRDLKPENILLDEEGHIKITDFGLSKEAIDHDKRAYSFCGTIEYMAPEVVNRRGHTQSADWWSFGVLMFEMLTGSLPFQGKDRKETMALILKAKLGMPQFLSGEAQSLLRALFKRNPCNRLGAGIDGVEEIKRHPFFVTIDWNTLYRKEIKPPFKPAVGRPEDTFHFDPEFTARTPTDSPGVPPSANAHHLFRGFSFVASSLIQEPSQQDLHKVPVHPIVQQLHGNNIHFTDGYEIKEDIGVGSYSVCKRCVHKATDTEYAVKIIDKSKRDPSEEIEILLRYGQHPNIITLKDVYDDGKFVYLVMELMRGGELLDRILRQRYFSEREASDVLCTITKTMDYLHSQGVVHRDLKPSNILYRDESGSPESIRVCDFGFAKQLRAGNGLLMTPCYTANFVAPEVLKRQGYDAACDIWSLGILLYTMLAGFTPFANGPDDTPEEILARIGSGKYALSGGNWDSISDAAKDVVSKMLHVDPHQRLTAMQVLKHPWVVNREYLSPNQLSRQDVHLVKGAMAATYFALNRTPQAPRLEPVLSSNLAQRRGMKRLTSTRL
# assay notes: radiometric filter-binding kinase assay, Kinase HotSpot
# assay context: compound 0.5 µM; ATP 10 µM
Label criterion met when residual activity is strictly below 90%; otherwise label criterion not met.

Recorded results for 2 compounds are shown here.
- mol smiles: "N#Cc1c[nH]c2c[nH]/c(=N\\Cc3cccnc3)cc2/c1=N\\c1ccc(F)c(Cl)c1"
  assigned category: "criterion met"
- mol smiles: "Cc1nc(-c2ccccc2)c(-c2ccncc2)o1"
  assigned category: "criterion not met"

Does the reported residual activity of COc1cc2ncnc(Nc3ccc(OCc4ccccc4)cc3)c2cc1OC stay below 90%?
criterion not met

Does the reported residual activity of CC(C)(C)c1cc(C=C(C#N)C#N)cc(Br)c1O stay below 90%?
criterion not met

Does the reported residual activity of O=C1C(Cl)=C(N2C(=O)CCC2=O)C(=O)c2ccccc21 stay below 90%?
criterion not met

Does the reported residual activity of Cc1cccc(-c2nc(C(C)(C)C)[nH]c2-c2ccc3c(c2)OCO3)n1 stay below 90%?
criterion not met

* * *

# residual activity per record follows
# assay system: JAK2 JH1 JH2 (human)
# assay notes: radiometric filter-binding kinase assay, Kinase HotSpot
# assay context: compound 0.5 µM; ATP 10 µM
Entry rule: numbers only, all in %.

Worked cases, residual activity given:
- mol smiles: "Fc1ccc(-c2nc3n(c2-c2ccncc2)CCS3)cc1"
  residual activity (%): 93.6
- mol smiles: "Cn1c2ccccc2c2c3c(c4c5ccccc5n(CCC#N)c4c21)CNC3=O"
  residual activity (%): 5.58
- mol smiles: "O=C(c1cc2cc(O)ccc2[nH]1)c1cc2cc(O)ccc2[nH]1"
  residual activity (%): 95.6
- mol smiles: "O=C1C(Cl)=C(N2C(=O)CCC2=O)C(=O)c2ccccc21"
  residual activity (%): 104
- mol smiles: "CN(C)c1ccc(/C=C2\\C(=O)Nc3ccccc32)cc1"
  residual activity (%): 94.8
- mol smiles: "CS(=O)(=O)CCNCc1ccc(-c2ccc3ncnc(Nc4ccc(OCc5cccc(F)c5)c(Cl)c4)c3c2)o1"
  residual activity (%): 101

Report residual activity for CN(C)S(=O)(=O)c1ccc2c(c1)/C(=C/c1cc3c([nH]1)CCCC3)C(=O)N2
46.1

Report residual activity for O=C1Nc2ccc(Br)cc2/C1=C\c1cc2c([nH]1)CCCC2
95.2

Report residual activity for Ic1cccc(CSc2nnc(-c3ccncc3)o2)c1
107

Report residual activity for COc1cc(Nc2c(C#N)cnc3cc(OCCCN4CCN(C)CC4)c(OC)cc23)c(Cl)cc1Cl
97.4

Report residual activity for COc1ccc(Cl)cc1NC(=O)Nc1cc(C)nc2ccccc12
99.6

Report residual activity for COc1ccc(C(=O)Nc2sc3c(c2C(N)=O)CCCC3)cc1OC
99.9

Report residual activity for NC(=O)c1cccc(-c2cc(Nc3ccc(OC(F)(F)F)cc3)ncn2)c1
104

* * *

# System: PRKCQ (human), Q04759 [P330L]
# Sequence (Q04759 whole entry P330L, looked up): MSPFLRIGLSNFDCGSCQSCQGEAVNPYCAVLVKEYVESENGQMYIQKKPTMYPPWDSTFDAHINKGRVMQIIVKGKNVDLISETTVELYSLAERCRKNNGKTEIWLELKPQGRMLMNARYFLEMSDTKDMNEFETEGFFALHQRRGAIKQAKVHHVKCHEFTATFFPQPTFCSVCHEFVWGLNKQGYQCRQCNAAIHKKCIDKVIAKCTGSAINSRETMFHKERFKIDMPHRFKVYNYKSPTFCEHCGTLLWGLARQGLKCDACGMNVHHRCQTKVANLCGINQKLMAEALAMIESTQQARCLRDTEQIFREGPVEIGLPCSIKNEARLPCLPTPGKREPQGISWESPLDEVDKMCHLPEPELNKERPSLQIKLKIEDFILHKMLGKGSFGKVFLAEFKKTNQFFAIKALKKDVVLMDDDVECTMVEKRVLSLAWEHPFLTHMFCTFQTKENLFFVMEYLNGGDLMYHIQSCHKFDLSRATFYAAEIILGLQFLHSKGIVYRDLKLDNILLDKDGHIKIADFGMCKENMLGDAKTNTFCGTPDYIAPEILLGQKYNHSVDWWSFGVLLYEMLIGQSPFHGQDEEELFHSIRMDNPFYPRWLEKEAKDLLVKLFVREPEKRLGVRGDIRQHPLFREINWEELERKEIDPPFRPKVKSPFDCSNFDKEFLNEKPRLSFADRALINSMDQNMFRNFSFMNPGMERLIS
# assay notes: radiometric filter-binding kinase assay, Kinase HotSpot
# assay context: compound 0.5 µM; ATP 10 µM
readout type: residual activity (%)
Entry rule: numbers only, all in %.

Worked cases, residual activity given:
- molecule: "COc1ccc(C(=O)Nc2sc3c(c2C(N)=O)CCCC3)cc1OC"
  unit label: "%"
  result: 97.5
- molecule: "C#Cc1cccc(Nc2ncnc3cc(OCCOC)c(OCCOC)cc23)c1"
  unit label: "%"
  result: 77.2
- molecule: "O=c1cc(-c2cccc3c2Sc2ccccc2S3)oc(N2CCOCC2)c1"
  unit label: "%"
  result: 112

Enter recorded residual activity with PRKCQ (human), Q04759 [P330L] for CO[C@H]1CC2CC[C@@H](C)[C@@](O)(O2)C(=O)C(=O)N2CCCC[C@H]2C(=O)OC([C@H](C)C[C@@H]2CC[C@@H](O)[C@H](OC)C2)CC(=O)[C@H](C)/C=C(\C)[C@@H](O)[C@@H](OC)C(=O)[C@H](C)C[C@H](C)/C=C/C=C/C=C/1C (some centres undefined) here.
126

Enter recorded residual activity with PRKCQ (human), Q04759 [P330L] for CC#CC(=O)Nc1cc2c(Nc3ccc(F)c(Cl)c3)ncnc2cn1 here.
89.3

Enter recorded residual activity with PRKCQ (human), Q04759 [P330L] for CSc1nc(-c2ccc(F)cc2)c(-c2ccnc(NC(C)c3ccccc3)c2)[nH]1 (centres undefined) here.
111

Enter recorded residual activity with PRKCQ (human), Q04759 [P330L] for N#C/C(=C\c1ccc(O)c(O)c1)C(=O)NCc1ccccc1 here.
103

Enter recorded residual activity with PRKCQ (human), Q04759 [P330L] for COc1ccc(CNC(=O)Nc2ncc([N+](=O)[O-])s2)cc1 here.
96.9

Enter recorded residual activity with PRKCQ (human), Q04759 [P330L] for NC(=O)c1ccc(N(C(N)=O)c2c(F)cccc2F)nc1-c1ccc(F)cc1F here.
85.1

* * *

# assay system: NEK4 (human) (UniProt P51957)
# Sequence (P51957 whole entry, looked up): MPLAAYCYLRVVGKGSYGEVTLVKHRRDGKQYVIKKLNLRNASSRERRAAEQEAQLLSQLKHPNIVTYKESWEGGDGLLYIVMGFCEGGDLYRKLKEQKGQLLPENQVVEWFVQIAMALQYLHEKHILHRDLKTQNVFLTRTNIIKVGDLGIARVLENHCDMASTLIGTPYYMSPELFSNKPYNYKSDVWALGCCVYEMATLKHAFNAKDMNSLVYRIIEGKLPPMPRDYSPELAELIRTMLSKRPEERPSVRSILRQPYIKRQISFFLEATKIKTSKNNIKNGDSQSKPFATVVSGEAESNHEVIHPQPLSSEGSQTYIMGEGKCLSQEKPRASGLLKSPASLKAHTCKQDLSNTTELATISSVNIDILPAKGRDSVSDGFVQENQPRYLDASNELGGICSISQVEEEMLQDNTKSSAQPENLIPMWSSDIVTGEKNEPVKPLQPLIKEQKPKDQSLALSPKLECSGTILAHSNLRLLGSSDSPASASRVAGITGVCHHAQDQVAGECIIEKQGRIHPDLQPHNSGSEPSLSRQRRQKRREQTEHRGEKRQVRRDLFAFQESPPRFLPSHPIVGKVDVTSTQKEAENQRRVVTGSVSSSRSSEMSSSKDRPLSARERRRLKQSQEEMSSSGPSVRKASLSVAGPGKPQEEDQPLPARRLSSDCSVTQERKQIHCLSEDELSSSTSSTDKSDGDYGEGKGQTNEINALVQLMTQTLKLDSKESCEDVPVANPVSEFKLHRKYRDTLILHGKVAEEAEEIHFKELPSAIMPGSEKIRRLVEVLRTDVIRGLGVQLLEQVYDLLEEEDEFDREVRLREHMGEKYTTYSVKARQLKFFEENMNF
# assay notes: radiometric filter-binding kinase assay, Kinase HotSpot
# assay context: compound 0.5 µM; ATP 10 µM
# residual activity per record follows
Entry rule: numbers only, all in %.

- mol smiles: "COc1ccc(Cl)cc1NC(=O)Nc1cc(C)nc2ccccc12"
  residual activity (%): 92
- mol smiles: "CCCCc1c(-c2ccc(OC)cc2)[nH]c2nccnc12"
  residual activity (%): 81.3
- mol smiles: "CN(C)c1ccc(/C=C2\\C(=O)Nc3ccccc32)cc1"
  residual activity (%): 102
- mol smiles: "COc1ccc2c(c1)c(C1=C(c3c[nH]c4ccccc34)C(=O)NC1=O)cn2CCCN(C)C"
  residual activity (%): 90.7
- mol smiles: "Cc1cncc2cccc(S(=O)(=O)N3CCCN(C(=O)CN)C[C@H]3C)c12"
  residual activity (%): 95.3
- mol smiles: "CO[C@@H]1[C@H](N(C)C(=O)c2ccccc2)C[C@H]2O[C@]1(C)n1c3ccccc3c3c4c(c5c6ccccc6n2c5c31)C(=O)NC4"
  residual activity (%): 97.6

Report residual activity for C[C@@H]1CCN(C(=O)CC#N)C[C@@H]1N(C)c1ncnc2[nH]ccc12
96

Report residual activity for COc1cc2ncnc(Nc3ccc(Oc4ccccc4)cc3)c2cc1OC
96.8

Report residual activity for CC(C)(C)c1cc(C=C(C#N)C#N)cc(Br)c1O
93.7

Report residual activity for Cc1nc(-c2ccccc2)c(-c2ccncc2)o1
100

Report residual activity for Cc1cccc(-c2nc(C(C)(C)C)[nH]c2-c2ccc3c(c2)OCO3)n1
94.9

Report residual activity for NC(=O)c1cccc(-c2cc(Nc3ccc(OC(F)(F)F)cc3)ncn2)c1
98

Report residual activity for O=C1Nc2ccc(Br)cc2/C1=C\c1cc2c([nH]1)CCCC2
80.5

Report residual activity for O=C1NC(=O)c2c1c1c3ccccc3[nH]c1n1cncc21
88.4

Report residual activity for COc1ccc(S(=O)(=O)N(CCO)c2ccccc2CN(C)C/C=C/c2ccc(Cl)cc2)cc1
98.7

Report residual activity for O=C1C(Cl)=C(N2C(=O)CCC2=O)C(=O)c2ccccc21
99.6

* * *

# assay system: UniProt Q9Y2U5
# Sequence (Q9Y2U5 whole entry, looked up): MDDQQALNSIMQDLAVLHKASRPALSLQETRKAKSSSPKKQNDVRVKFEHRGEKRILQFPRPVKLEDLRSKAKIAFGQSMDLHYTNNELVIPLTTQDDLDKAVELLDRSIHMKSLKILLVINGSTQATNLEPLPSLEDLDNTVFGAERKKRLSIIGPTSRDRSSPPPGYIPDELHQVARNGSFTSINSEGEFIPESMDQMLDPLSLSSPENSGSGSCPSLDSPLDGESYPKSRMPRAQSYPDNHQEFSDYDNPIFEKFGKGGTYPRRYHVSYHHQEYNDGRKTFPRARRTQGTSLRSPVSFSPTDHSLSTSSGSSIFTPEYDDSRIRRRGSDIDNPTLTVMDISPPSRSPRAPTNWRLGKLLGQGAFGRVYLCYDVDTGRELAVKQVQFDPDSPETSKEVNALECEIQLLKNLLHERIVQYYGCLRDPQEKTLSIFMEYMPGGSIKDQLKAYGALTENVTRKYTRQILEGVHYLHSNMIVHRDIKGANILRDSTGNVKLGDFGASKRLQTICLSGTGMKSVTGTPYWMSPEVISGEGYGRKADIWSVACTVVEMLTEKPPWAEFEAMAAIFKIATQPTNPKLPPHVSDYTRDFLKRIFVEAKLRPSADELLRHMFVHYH
# assay notes: radiometric filter-binding kinase assay, Kinase HotSpot
# assay context: compound 0.5 µM; ATP 10 µM
readout type: residual activity (%)
Entry rule: numbers only, all in %.

Worked cases, residual activity given:
- mol smiles: "CN(C)CCCn1cc(C2=C(c3c[nH]c4ccccc34)C(=O)NC2=O)c2ccccc21"
  assay system: "UniProt Q9Y2U5"
  residual activity [%]: 82.8
- mol smiles: "CO[C@@H]1[C@H](N(C)C(=O)c2ccccc2)C[C@H]2O[C@]1(C)n1c3ccccc3c3c4c(c5c6ccccc6n2c5c31)C(=O)NC4"
  assay system: "UniProt Q9Y2U5"
  residual activity [%]: 30.2
- mol smiles: "O=C1C(Cl)=C(N2C(=O)CCC2=O)C(=O)c2ccccc21"
  assay system: "UniProt Q9Y2U5"
  residual activity [%]: 108
- mol smiles: "O=C1NC(=O)c2c1c1c3ccccc3[nH]c1n1cncc21"
  assay system: "UniProt Q9Y2U5"
  residual activity [%]: 97.9
- mol smiles: "COc1cc2ncnc(Nc3ccc(OCc4ccccc4)cc3)c2cc1OC"
  assay system: "UniProt Q9Y2U5"
  residual activity [%]: 113

Report residual activity for CS(=O)(=O)CCNCc1ccc(-c2ccc3ncnc(Nc4ccc(OCc5cccc(F)c5)c(Cl)c4)c3c2)o1
123

Report residual activity for c1ccc2c(-c3ccncc3)c[nH]c2c1
94.9

Report residual activity for CN(C)c1ccc(/C=C2\C(=O)Nc3ccccc32)cc1
99.8

Report residual activity for CC(C)(C)c1cc(C=C(C#N)C#N)cc(Br)c1O
93.7

Report residual activity for Cc1nc(-c2ccccc2)c(-c2ccncc2)o1
102

Report residual activity for COc1cc(Nc2c(C#N)cnc3cc(OCCCN4CCN(C)CC4)c(OC)cc23)c(Cl)cc1Cl
23.5

Report residual activity for COc1ccc2c(c1)/C(=C/c1cnc[nH]1)C(O)=N2
89.6
